system-name: T1, human sucrase-isomaltase complex (hSI) receptor domain, amino acid residues 272-667, His-tag fusion protein (human, UniProt P14410 272-667)
T1 construct: Expressed as His-tag fusion, purified under denaturing conditions (urea or guanidine HCl), coated on plates; also called hS1 receptor domain; not shown: poly-histidine tag (pET His-tag) at the NH2-terminal end
T1 sequence (P14410 272-667, one chain of several): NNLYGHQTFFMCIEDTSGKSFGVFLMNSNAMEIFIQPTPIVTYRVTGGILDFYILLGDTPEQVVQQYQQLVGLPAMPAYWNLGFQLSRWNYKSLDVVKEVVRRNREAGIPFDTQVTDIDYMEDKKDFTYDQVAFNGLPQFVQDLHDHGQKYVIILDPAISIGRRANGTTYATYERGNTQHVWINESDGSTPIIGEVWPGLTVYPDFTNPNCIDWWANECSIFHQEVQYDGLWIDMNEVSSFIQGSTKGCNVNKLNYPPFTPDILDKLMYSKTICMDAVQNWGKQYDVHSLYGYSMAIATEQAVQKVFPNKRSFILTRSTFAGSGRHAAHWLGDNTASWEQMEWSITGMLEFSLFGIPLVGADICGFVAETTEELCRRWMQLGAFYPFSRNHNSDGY
procedure-details: phage ELISA, coated hSI domain
value-type: OD (OD 650 nm)
Numeric answer only, unit OD 650 nm assumed.

Example cases with answers are listed next.
RSGAYESPDGRGGRSYVGGGGGCGNIGRKHNLWGLRTASPACWD (pIII and flanks not included) [phage S15]; 0.478
RGAADQRRGWSENLGLPRVGWDAIAHNSYTFTSRRPRPP (pIII and flanks not included) [phage SNi38]; 0.466
SHSGGMNRAYGDVFRELRDRWNATSHHTRPTPQLPRGPN (pIII and flanks not included) [phage SNi28]; 0.942

Could you now consider this next binder?
**Query** // query OD value for entry SPCGGSWGRFMQGGLFGGRTDGCGAHRNRTSASLEPPSSDY (pIII and flanks not included) [phage SNi34]
**Result** 0.761
